Target: T1, IL23R_huFC (human, UniProt Q5VWK5 24-353)
T1 sequence (looked up): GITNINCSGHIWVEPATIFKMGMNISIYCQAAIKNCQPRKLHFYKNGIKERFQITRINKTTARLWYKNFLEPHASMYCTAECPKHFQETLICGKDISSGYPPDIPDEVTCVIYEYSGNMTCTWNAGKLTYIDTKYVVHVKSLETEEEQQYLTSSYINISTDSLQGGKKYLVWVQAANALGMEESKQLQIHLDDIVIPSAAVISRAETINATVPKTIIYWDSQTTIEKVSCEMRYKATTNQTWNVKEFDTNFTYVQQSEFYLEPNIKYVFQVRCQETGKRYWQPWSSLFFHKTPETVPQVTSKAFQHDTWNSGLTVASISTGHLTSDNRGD
Assay: human ELISA vs IL-23
pIC50: −log10 of the molar value.
readoutLabel: pIC50

1. XQTWQCFXKENG (not fully specified; as bracketed in name; thioether cyclo; DIG linker through a-MeLys) [[Ac-Cyclo-[[Abu]-QTWQC]-[Phe(4-OMe)]-[2-Nal]-[α-MeLys+-ENG-NH2]2DIG] :: > 8.00
2. KXQTWQCFXLENG (not fully specified; as bracketed in name; thioether cyclo; DIG linker through (D)Lys) [[Ac-[(D)Lys]-Cyclo-[[Abu]-QTWQC]-[Phe(4-OMe)]-[2-Nal]-[α-MeLeu]-ENG-NH2]2 DIG] :: > 8.00
3. KXQTWQCFXKENG (not fully specified; as bracketed in name; thioether cyclo; PEG25 linker through α-MeLys) [[Ac-[(D)Lys]-Cyclo-[[Abu]-QTWQC]-[Phe(4-OMe)]-[2-Nal]-[α-MeLys]-ENG-NH2]2 PEG25] :: > 8.00
